These entries and their values trace back to ChEMBL document CHEMBL1126006.

# Lookup of reported MIC keyed by entry
Test system: Candida albicans
Assay: In vitro Minimum inhibitory concentration was determined by microbroth dilution assay on Candida albicans
Type: functional
Express the result in µg/mL but write the number alone.

>>> measurement("CC(=O)N1CCN(c2ccc(OCC3COC(Cn4ccnc4)(c4ccc(Cl)cc4Cl)O3)cc2)CC1 (stereo not drawn)")
0.1

Q: Entry C[C@@H]1[C@H](O)[C@@H](C)/C=C/C=C/C=C/C=C/C=C/C=C/C=C/[C@H](O[C@@H]2O[C@H](C)[C@@H](O)[C@H](N)[C@@H]2O)C[C@@H]2O[C@](O)(C[C@@H](O)C[C@@H](O)[C@H](O)CC[C@@H](O)C[C@@H](O)CC(=O)O[C@H]1C)C[C@H](O)[C@H]2C(=O)O has what MIC?
Ans: 0.2

Q: Entry C[C@H](CCC(=N)N)C1CC[C@@]2(C)C3=C(CC[C@]12C)[C@@]1(C)CC[C@H](O)C(C)(C)C1CC3.O=S(=O)(O)C(F)(F)F (stereo partly drawn) has what MIC?
Ans: 0.2

Q: Entry CC(C)SCC[C@@H](C)C1CCC2C3CC=C4C[C@@H](O)CC[C@]4(C)C3CC[C@@]21C (stereo partly drawn) has what MIC?
Ans: 50

Q: Entry C[C@H](CCc1nccn1C)C1CC[C@@]2(C)C3=C(CC[C@]12C)[C@@]1(C)CC[C@H](O)C(C)(C)C1CC3 (stereo partly drawn) has what MIC?
Ans: 0.4

Q: Entry CC(C)[S+](C)CC[C@@H](C)C1CCC2C3CC=C4C[C@@H](O)CC[C@]4(C)C3CC[C@@]21C.[I-] (stereo partly drawn) has what MIC?
Ans: 0.2

Q: Entry CC[S+](CC[C@@H](C)C1CCC2C3CC=C4C[C@@H](O)CC[C@]4(C)C3CC[C@@]21C)C(C)C.[I-] (stereo partly drawn) has what MIC?
Ans: 100

Q: Entry C[C@H](CCc1ncc[nH]1)C1CC[C@@]2(C)C3=C(CC[C@]12C)[C@@]1(C)CC[C@H](O)C(C)(C)C1CC3 (stereo partly drawn) has what MIC?
Ans: 1.6

* * *

Tested on: Candida albicans
Experiment: Compound was tested for the inhibition of delta24-sterol Methyl transferase
readout_type: Kis (nM)
Express the result in nM but write the number alone.

Example results:
>>> measurement("C[C@H](CCc1nccn1C)C1CC[C@@]2(C)C3=C(CC[C@]12C)[C@@]1(C)CC[C@H](O)C(C)(C)C1CC3 (some centres undefined)")
5
>>> measurement("CC(C)[S+](C)CC[C@@H](C)C1CC[C@@]2(C)C3=C(CC[C@]12C)[C@@]1(C)CC[C@H](O)C(C)(C)C1CC3 (some centres undefined)")
21
>>> measurement("CC(C)SCC[C@@H](C)C1CC[C@@]2(C)C3=C(CC[C@]12C)[C@@]1(C)CC[C@H](O)C(C)(C)C1CC3 (some centres undefined)")
72000

Note: attention shifts to another entry.
Q: Entry C[C@H](CCc1ncc[nH]1)C1CC[C@@]2(C)C3=C(CC[C@]12C)[C@@]1(C)CC[C@H](O)C(C)(C)C1CC3 (some centres undefined) has what Kis?
Ans: 11

* * *

System: Candida albicans
Test: Inhibition type against delta 24-sterol Methyl transferase
readout_type: Inhibition type

Example results:
>>> measurement("CC(C)[S+]([O-])CC[C@@H](C)C1CCC2C3CC=C4C[C@@H](O)CC[C@]4(C)C3CC[C@@]21C (stereo not given in full)")
"Competitive"
>>> measurement("CC(C)SCC[C@@H](C)C1CCC2C3CC=C4C[C@@H](O)CC[C@]4(C)C3CC[C@@]21C (stereo not given in full)")
"Competitive"
>>> measurement("CC(C)SCC[C@@H](C)C1CC[C@@]2(C)C3=C(CC[C@]12C)[C@@]1(C)CC[C@H](O)C(C)(C)C1CC3 (stereo not given in full)")
"Competitive"
>>> measurement("C[C@H](CCC(N)=[N+](C)C)C1CC[C@@]2(C)C3=C(CC[C@]12C)[C@@]1(C)CC[C@H](O)C(C)(C)C1CC3 (stereo not given in full)")
"Parabolic competitive"
>>> measurement("C[C@H](CCc1nccn1C)C1CC[C@@]2(C)C3=C(CC[C@]12C)[C@@]1(C)CC[C@H](O)C(C)(C)C1CC3 (stereo not given in full)")
"Parabolic competitive"

Q: Entry CC[S+](CC[C@@H](C)C1CCC2C3CC=C4C[C@@H](O)CC[C@]4(C)C3CC[C@@]21C)C(C)C.[I-] (stereo not given in full) has what Inhibition type?
Ans: Parabolic competitive

Q: Entry CC(C)[S+](C)CC[C@@H](C)C1CCC2C3CC=C4C[C@@H](O)CC[C@]4(C)C3CC[C@@]21C.[I-] (stereo not given in full) has what Inhibition type?
Ans: Parabolic competitive

Q: Entry C[C@H](CCC(=N)N)C1CC[C@@]2(C)C3=C(CC[C@]12C)[C@@]1(C)CC[C@H](O)C(C)(C)C1CC3.O=S(=O)(O)C(F)(F)F (stereo not given in full) has what Inhibition type?
Ans: Parabolic competitive

Q: Entry CC(C)[S+](C)CC[C@@H](C)C1CC[C@@]2(C)C3=C(CC[C@]12C)[C@@]1(C)CC[C@H](O)C(C)(C)C1CC3 (stereo not given in full) has what Inhibition type?
Ans: Parabolic competitive
